- Test system: 885512-296-R-J2-PDC complex spheroid viability
- protocol notes: Anticancer human tumor 885512-296-R-J2-PDC patient-derived breast carcinoma cell line growth inhibition; active = viability on the fitted dose curve at most 10% of control; inactive = the rest
- conditions used: second compound 0.316 µM; first compound 0.0316 µM
- Description: Multicellular complex tumor spheroid response to LSD1 Inhibitor Iadademstat in combination with a variety of drugs and investigational agents in selected tumor cell lines The current study was undertaken to assess response to LSD1 inhibitors in combination with standard-of-care drugs and investigational agents in solid tumor complex spheroid models as well as in the K-562 leukemia. […] Compounds. […] If the clinical Cmax for an agent had not been determined, the highest concentration tested was 10 microM. […]
Respond with a class label; see active, inactive

Please indicate how the test categorized Nc1ncn(C2CC(O)C(CO)O2)c(=O)n1 (stereo not drawn) + NC1CCC(NC2CC2c2ccccc2)CC1 .
inactive

Would you mind doing CC(C)CC(NC(=O)C(Cc1ccccc1)NC(=O)c1cnccn1)B(O)O (stereo not drawn) + NC1CCC(NC2CC2c2ccccc2)CC1 as well?
active

Would you mind doing COc1cc(Nc2ncc3c(n2)-c2ccc(Cl)cc2C(c2c(F)cccc2OC)=NC3)ccc1C(=O)O + NC1CC1c1ccc(-c2cccc(O)c2)cc1 as well?
inactive

----------
Task for the reader: assign each of the following compounds its reported pIC50.
- System: 885512-296-R-J2-PDC complex spheroid viability
- protocol notes: Anticancer human tumor 885512-296-R-J2-PDC cell line growth inhibition;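 note: spheroids exposed to agents for 7 days before viability read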
- conditions used: curve of first compound; second compound 3.16 µM
pIC50 here is simply -log10 of the concentration when that concentration is written in mol/L.

pIC50 of CC(C)CC(NC(=O)CNC(=O)c1cc(Cl)ccc1Cl)B1OC(=O)CC(CC(=O)O)(C(=O)O)O1 (stereo not drawn) + NC1CC1c1ccc(-c2cccc(O)c2)cc1 on 885512-296-R-J2-PDC complex spheroid viability?
8.37

Would you mind doing Nc1ncn(C2CC(O)C(CO)S2)c(=O)n1 (stereo not drawn) + NC1CCC(NC2CC2c2ccccc2)CC1 as well?
8.32

Would you mind doing CCN(c1cc(-c2ccc(CN3CCOCC3)cc2)cc(C(=O)NCc2c(C)cc(C)[nH]c2=O)c1C)C1CCOCC1 + NC1CC1c1ccc(-c2cccc(O)c2)cc1 as well?
6.82

Would you mind doing Nc1ncn(C2CC(O)C(CO)S2)c(=O)n1 (stereo not drawn) + NC1CC1c1ccc(-c2cccc(O)c2)cc1 as well?
8.55

Would you mind doing COc1cc(Nc2ncc3c(n2)-c2ccc(Cl)cc2C(c2c(F)cccc2OC)=NC3)ccc1C(=O)O + NC1CCC(NC2CC2c2ccccc2)CC1 as well?
8.02

Would you mind doing CC(C)CC(NC(=O)C(Cc1ccccc1)NC(=O)c1cnccn1)B(O)O (stereo not drawn) + NC1CCC(NC2CC2c2ccccc2)CC1 as well?
8.88

Would you mind doing CC1COCCN1c1cc(C2(S(C)(=N)=O)CC2)nc(-c2ccnc3[nH]ccc23)n1 (stereo not drawn) + NC1CC1c1ccc(-c2cccc(O)c2)cc1 as well?
6.39

----------
Task for the reader: assign each of the following compounds its reported IC50.
- Tested on: 885512-296-R-J2-PDC complex spheroid viability
- protocol notes: Anticancer human tumor 885512-296-R-J2-PDC cell line growth inhibition;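 note: spheroids exposed to agents for 7 days before viability read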
- conditions used: curve of first compound; second compound 1 µM

IC50 of O=C(C=Cn1cnc(-c2cc(C(F)(F)F)cc(C(F)(F)F)c2)n1)NNc1cnccn1 + NC1CC1c1ccc(-c2cccc(O)c2)cc1 on 885512-296-R-J2-PDC complex spheroid viability?
< 3.16 nM

Would you mind doing CC1COCCN1c1cc(-c2ccnn2C)c2ccnc(-c3ccn[nH]3)c2n1 (stereo not drawn) + NC1CC1c1ccc(-c2cccc(O)c2)cc1 as well?
< 3.16 nM

Would you mind doing O=C(C=Cn1cnc(-c2cc(C(F)(F)F)cc(C(F)(F)F)c2)n1)NNc1cnccn1 + NC1CCC(NC2CC2c2ccccc2)CC1 as well?
< 3.16 nM

----------
Task for the reader: assign each of the following molecules its reported viability, T/C.
- Test system: 885512-296-R-J2-PDC complex spheroid viability
- protocol notes: Anticancer human tumor 885512-296-R-J2-PDC cell line growth inhibition;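 note: spheroids exposed to agents for 7 days before viability read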
- conditions used: second compound 3.16 µM; first compound 0.01 µM; stronger effect = lower value
Respond with the bare value in %.

Which value of viability, T/C has been reported for O=C(C=Cn1cnc(-c2cc(C(F)(F)F)cc(C(F)(F)F)c2)n1)NNc1cnccn1 + NC1CC1c1ccc(-c2cccc(O)c2)cc1 in the records?
10.3

Would you mind doing Cn1ncnc1C1c2n[nH]c(=O)c3cc(F)cc(c23)NC1c1ccc(F)cc1 (stereo not drawn) + NC1CC1c1ccc(-c2cccc(O)c2)cc1 as well?
77.4

Would you mind doing CC1COCCN1c1cc(-c2ccnn2C)c2ccnc(-c3ccn[nH]3)c2n1 (stereo not drawn) + NC1CCC(NC2CC2c2ccccc2)CC1 as well?
7.56

----------
- Tested on: 885512-296-R-J2-PDC complex spheroid viability
- protocol notes: Anticancer human tumor 885512-296-R-J2-PDC cell line growth inhibition;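 note: spheroids exposed to agents for 7 days before viability read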
- conditions used: second compound 10 µM; first compound 0.949 µM; stronger effect = lower value
Task for the reader: assign each of the following compounds its reported viability, T/C.

Which value of viability, T/C has been reported for O=C(C=Cc1cccc(S(=O)(=O)Nc2ccccc2)c1)NO + NC1CCC(NC2CC2c2ccccc2)CC1 in the records?
8.4%

Would you mind doing COc1cc(C2c3cc4c(cc3C(OC3OC5COC(C)OC5C(O)C3O)C3COC(=O)C23)OCO4)cc(OC)c1O (centres undefined) + NC1CCC(NC2CC2c2ccccc2)CC1 as well?
5.81%

Would you mind doing NS(=O)(=O)OCC1CC(n2ccc3c(NC4CCc5ccccc54)ncnc32)CC1O (centres undefined) + NC1CCC(NC2CC2c2ccccc2)CC1 as well?
1.08%

Would you mind doing NS(=O)(=O)OCC1CC(n2ccc3c(NC4CCc5ccccc54)ncnc32)CC1O (centres undefined) + NC1CC1c1ccc(-c2cccc(O)c2)cc1 as well?
0.97%

----------
- Test system: 885512-296-R-J2-PDC complex spheroid viability
- protocol notes: Anticancer human tumor 885512-296-R-J2-PDC cell line growth inhibition; active = viability on the fitted dose curve at most 10% of control; inactive = the rest;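 note: spheroids exposed to agents for 7 days before viability read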
- conditions used: second compound 1 µM; first compound 0.03 µM
Respond with a class label; see active, inactive

Please indicate how the test categorized COc1cc(C2c3cc4c(cc3C(OC3OC5COC(C)OC5C(O)C3O)C3COC(=O)C23)OCO4)cc(OC)c1O (centres undefined) + NC1CC1c1ccc(-c2cccc(O)c2)cc1 .
inactive

Would you mind doing Nc1ncn(C2CC(O)C(CO)S2)c(=O)n1 (centres undefined) + NC1CCC(NC2CC2c2ccccc2)CC1 as well?
inactive

Would you mind doing CCN(c1cc(-c2ccc(CN3CCOCC3)cc2)cc(C(=O)NCc2c(C)cc(C)[nH]c2=O)c1C)C1CCOCC1 + NC1CCC(NC2CC2c2ccccc2)CC1 as well?
inactive

Would you mind doing CCc1c2c(nc3ccc(O)cc13)-c1cc3c(c(=O)n1C2)COC(=O)[C@]3(O)CC + NC1CCC(NC2CC2c2ccccc2)CC1 as well?
active

----------
- Test system: 885512-296-R-J2-PDC complex spheroid viability
- protocol notes: Anticancer human tumor 885512-296-R-J2-PDC cell line growth inhibition;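 note: spheroids exposed to agents for 7 days before viability read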
- conditions used: second compound 1 µM; first compound 1 µM; stronger effect = lower value
property label: viability, T/C

Which value of viability, T/C has been reported for COc1ccc([C@@H](O)c2cc(-c3ncnc4cc(N5CCOCC5)ccc34)c(F)cc2Cl)nn1 + NC1CC1c1ccc(-c2cccc(O)c2)cc1 in the records?
78.9%

Would you mind doing CC1(C)CCC(CN2CCN(c3ccc(C(=O)NS(=O)(=O)c4ccc(NCC5CCOCC5)c([N+](=O)[O-])c4)c(Oc4cnc5[nH]ccc5c4)c3)CC2)=C(c2ccc(Cl)cc2)C1 + NC1CC1c1ccc(-c2cccc(O)c2)cc1 as well?
79.9%

Would you mind doing O=C(C=Cn1cnc(-c2cc(C(F)(F)F)cc(C(F)(F)F)c2)n1)NNc1cnccn1 + NC1CC1c1ccc(-c2cccc(O)c2)cc1 as well?
0.58%

Would you mind doing CC1(C)CCC(CN2CCN(c3ccc(C(=O)NS(=O)(=O)c4ccc(NCC5CCOCC5)c([N+](=O)[O-])c4)c(Oc4cnc5[nH]ccc5c4)c3)CC2)=C(c2ccc(Cl)cc2)C1 + NC1CCC(NC2CC2c2ccccc2)CC1 as well?
93.4%

Would you mind doing O=C(C=Cn1cnc(-c2cc(C(F)(F)F)cc(C(F)(F)F)c2)n1)NNc1cnccn1 + NC1CCC(NC2CC2c2ccccc2)CC1 as well?
0.74%

Would you mind doing CC(C)c1c(-c2ccccc2)nc2c(C#N)c[nH]n2c1=O + NC1CC1c1ccc(-c2cccc(O)c2)cc1 as well?
118%

Would you mind doing CC(C)c1c(-c2ccccc2)nc2c(C#N)c[nH]n2c1=O + NC1CCC(NC2CC2c2ccccc2)CC1 as well?
123%

Would you mind doing Nc1ncn(C2CC(O)C(CO)O2)c(=O)n1 (stereo not drawn) + NC1CC1c1ccc(-c2cccc(O)c2)cc1 as well?
13.4%
